Measured values drawn from PubChem BioAssay (NCATS) for this set.

Assay: qHTS assay for small molecule activators of the nuclear factor-kappa B (NF-kB) signaling pathway (AID 651749); further: series mostly up to about 77 µM; % of control where 0% means no effect
Settings: NF-kB-bla ME-180 cells, beta-lactamase FRET ratio, 16 h; active compounds read high
Records with an inconclusive call do not appear.
# Lookup of reported activation keyed by entry

| Molecule | activation / % |
| --- | --- |
| CCOP(N)(=O)Oc1ccc(SC)c(C)c1 (configuration not stated) | 0.0027 |
| CCNc1nc(Cl)nc(NC(C)(C)C)n1 | -1.02 |
| CCCOCC(=Nc1ccc(Cl)cc1C(F)(F)F)n1ccnc1 | -1.47 |
| Nc1c(Cl)c(F)nc(OCC(=O)O)c1Cl | 0.422 |
| CCOP(=O)(OCC)OC(Cl)C(Cl)(Cl)Cl (configuration not stated) | 1.4 |
| C=CC1(C)OC(=O)N(c2cc(Cl)cc(Cl)c2)C1=O (configuration not stated) | -0.261 |
| COc1cc(OC)nc(Sc2cccc(Cl)c2C(=O)O)n1 | 0.833 |
